Origin of measurements: patent US10703748B2

compounds and their reported EC50
TESTED ON: GSK3β kinase (Homo sapiens, UniProt P49841)
Sequence (P49841 whole entry): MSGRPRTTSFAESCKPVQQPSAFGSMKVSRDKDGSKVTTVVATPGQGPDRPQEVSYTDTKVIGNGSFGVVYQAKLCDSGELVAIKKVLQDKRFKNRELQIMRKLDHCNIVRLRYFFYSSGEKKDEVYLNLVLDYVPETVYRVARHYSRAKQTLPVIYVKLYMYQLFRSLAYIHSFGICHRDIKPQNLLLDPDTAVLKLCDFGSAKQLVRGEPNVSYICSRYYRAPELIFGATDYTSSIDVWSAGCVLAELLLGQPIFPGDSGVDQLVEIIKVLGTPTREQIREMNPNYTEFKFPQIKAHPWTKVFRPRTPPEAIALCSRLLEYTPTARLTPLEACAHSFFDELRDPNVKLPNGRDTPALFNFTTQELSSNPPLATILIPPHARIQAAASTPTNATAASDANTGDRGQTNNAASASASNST
PROCEDURE SUMMARY: GSK3β kinase activity (Ser/Thr 09 peptide Z-lyte FRET assay)
Type: biochemical
APPLIED CONDITIONS: recombinant kinase, 46 μM ATP, one hour at room temperature; read-out: EC50
Record the value in µM, omitting the unit from your answer.

Observe how each entry below is paired with its result.
SMILES REPRESENTATION: Cn1cncc1-c1ccc2cnc(NC(=O)c3cccc(CN4CCCC4)c3)cc2n1
DISPLAY UNIT: µM
EC50: 0.35
--
SMILES REPRESENTATION: CC(C)OCCC(=O)Nc1cc2cc(-c3cncn3C)cnc2cn1
DISPLAY UNIT: µM
EC50: 0.982
--
SMILES REPRESENTATION: O=C(Nc1cc2nc(-c3cncs3)ccc2cn1)c1ccncc1
DISPLAY UNIT: µM
EC50: 8.27
--
SMILES REPRESENTATION: O=C(Nc1cc2nc(-c3cncs3)ccc2cn1)c1ccc(OC2CCNCC2)cc1
DISPLAY UNIT: µM
EC50: 2.93

Continue with the compound presented below.
Under GSK3β kinase (Homo sapiens, UniProt P49841): EC50 value of `Cn1cc(-c2ccc3cnc(NC(=O)c4ccnc(OC5CCNCC5)c4)cc3n2)cn1` ?
6

* * *

The following molecules are listed with their measured EC50 values.
TESTED ON: DYRK1A kinase (Homo sapiens)
PROCEDURE SUMMARY: DYRK1A kinase activity (Ser/Thr 18 peptide Z-lyte FRET assay)
APPLIED CONDITIONS: recombinant DYRK1A, 30 μM ATP, one hour at room temperature
Value expressed in nM; do not type the unit.

Guide cases for EC50, answers given:
SMILES REPRESENTATION: Cc1ncc(-c2ccc3cnc(NC(=O)[C@H]4CC[C@H](N(C)C)CC4)cc3n2)s1
DISPLAY UNIT: nM
EC50: 14
--
SMILES REPRESENTATION: Cn1cc(-c2ccc3cnc(NC(=O)C(C)(C)F)nc3c2)nn1
DISPLAY UNIT: nM
EC50: 171
--
SMILES REPRESENTATION: CN1CCC(n2cc(C(=O)Nc3cc4nc(-c5cnn(C)c5)ccc4cn3)cn2)CC1
DISPLAY UNIT: nM
EC50: 11

Attention now turns to another entry.
If you can, please state the reported EC50 value of `CN1CCN(c2cc(C(=O)Nc3cc4nc(-c5ccc(N)nc5)ccc4cn3)ccn2)CC1` .
7

* * *

Tested on: α-smooth muscle actin (aSMA) positive LL29 cells
PROCEDURE SUMMARY: Inhibition of the fibrotic process: αSMA staining in TGF-β1 treated LL29 fibroblasts from IPF patients
APPLIED CONDITIONS: Homo sapiens, Fibroblast, read-out: percentage in parentheses after EC50 >10
Mark label 1 for reported inhibition at 10 µM of 30% or greater; mark label 0 for anything smaller.

SMILES REPRESENTATION: Cn1nnnc1-c1ccc2cnc(NC(=O)C3CCN(CCC(F)(F)F)CC3)nc2c1
TESTED ON: α-smooth muscle actin (aSMA) positive LL29 cells
CATEGORY LABEL: label 1
//
SMILES REPRESENTATION: CN1CCN(c2cccc(C(=O)Nc3cc4cc(-c5cnn(C)c5)ccc4nn3)c2)CC1
TESTED ON: α-smooth muscle actin (aSMA) positive LL29 cells
CATEGORY LABEL: label 1
//
SMILES REPRESENTATION: Cn1cc(-c2cnc3cnc(NC(=O)C4CCN(Cc5ncco5)CC4)cc3c2)cn1
TESTED ON: α-smooth muscle actin (aSMA) positive LL29 cells
CATEGORY LABEL: label 0
//
SMILES REPRESENTATION: CN1CCN(c2cc(C(=O)Nc3cc4cc(-c5cn(C)nn5)cnc4cn3)ccn2)CC1
TESTED ON: α-smooth muscle actin (aSMA) positive LL29 cells
CATEGORY LABEL: label 0
//
SMILES REPRESENTATION: Cc1ncc(-c2ccc3cnc(NC(=O)Cn4ccnc4)cc3n2)o1
TESTED ON: α-smooth muscle actin (aSMA) positive LL29 cells
CATEGORY LABEL: label 1

State whether the measured inhibition at 10 µM reaches 30%, counting equality as reaching it, for `Cc1nnc(-c2ccc3cnc(NC(=O)CN4C[C@@H]5C[C@H]4CO5)nc3c2)s1`
label 1

Hi team, for `Cn1cc(-c2ccc3cnc(NC(=O)C4CCNCC4)nc3c2)cn1` , is the recorded inhibition at 10 µM at or above 30%?
label 1

Test whether the molecule `CN(C)C1CCN(c2cc(C(=O)Nc3cc4cc(-c5cn(C)nn5)cnc4cn3)ccn2)CC1` records inhibition at 10 µM of 30% or higher.
label 1

Check the entry `Cn1cncc1-c1cnc2cnc(NC(=O)c3ccc4c(c3)CNC4)cc2c1` : does inhibition at 10 µM equal or exceed 30%?
label 1

API: above_or_equal(metric=inhibition at 10 µM, cutoff=30%) for item `Cn1cc(-c2cnc3cnc(NC(=O)C4CCN(CC5(C(F)(F)F)CC5)CC4)cc3c2)nn1`
label 1

Is the recorded value of inhibition at 10 µM equal to or greater than 30% for this molecule? `Cc1cn2c(n1)CN(C(=O)Nc1ncc3ccc(-c4cnc(C)o4)cc3n1)CC2`
label 0

Kindly determine if inhibition at 10 µM recorded for `CC(C)Oc1ccc(C(=O)Nc2ncc3ccc(-c4cnc5n4CCN(C)C5)cc3n2)cc1` is above or exactly 30%.
label 1

Decide: inhibition at 10 µM of `Cn1cncc1-c1cnc2cnc(NC(=O)c3cccc(CN4CCCC4)c3)cc2c1` >= 30%?
label 1

Check this molecule for inhibition at 10 µM at or above 30%: `Cc1nnc(-c2ccc3cnc(NC(=O)CN4C5CCC4CC5)nc3c2)s1`
label 0

Check the entry `O=C(Nc1ncc2ccc(-c3cncc(NCC4(F)CNC4)n3)cc2n1)C1CC1` : does inhibition at 10 µM equal or exceed 30%?
label 1

Hi, just wondering whether `Cc1nnc(-c2ccc3cnc(NC(=O)CN4C5CCC4COC5)nc3c2)s1` shows inhibition at 10 µM of 30% or higher.
label 0

* * *

TESTED ON: DYRK1A kinase (Homo sapiens)
PROCEDURE SUMMARY: DYRK1A kinase activity (Ser/Thr 18 peptide Z-lyte FRET assay);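 note: kinase activity read as coumarin/fluorescein emission ratio after development step, with unphosphorylated and phosphorylated peptide forms setting 0% and 100% controls, values from dose-response curves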
APPLIED CONDITIONS: recombinant DYRK1A, 30 μM ATP, one hour at room temperature
Listed molecules paired with reported EC50
Enter your answer as a number in µM; do not include the unit.

Guide cases for EC50, answers given:
SMILES REPRESENTATION: Cc1ncc(-c2ccc3cnc(NC(=O)Cn4ccnc4)nc3c2)o1
TESTED ON: DYRK1A kinase (Homo sapiens)
DATA VALUE: 0.113
--
SMILES REPRESENTATION: CN1CCc2ccc(C(=O)Nc3ncc4ccc(-c5cnn(C)c5)cc4n3)cc2C1
TESTED ON: DYRK1A kinase (Homo sapiens)
DATA VALUE: 0.018
--
SMILES REPRESENTATION: O=C(Nc1cc2cc(-c3cnn4c3CN(CCF)CC4)ncc2cn1)C1CCC(F)(F)CC1
TESTED ON: DYRK1A kinase (Homo sapiens)
DATA VALUE: 0.006
--
SMILES REPRESENTATION: Cc1ncc(-c2ccc3cnc(NC(=O)c4cccnc4)cc3n2)s1
TESTED ON: DYRK1A kinase (Homo sapiens)
DATA VALUE: 0.006

Now for the molecule whose EC50 we want.
Can you look up the measured EC50 of `Cn1cncc1-c1ccc2cnc(NC(=O)C3CCC(F)(F)CC3)cc2n1` for me?
0.121

* * *

Test system: Tau phosphorylation at Ser396 (pSer396)
PROCEDURE SUMMARY: Tau phosphorylation at Ser396 (pSer396) in SH-SY5Y cells, ELISA / western blot
Assay type: cell-based, human
APPLIED CONDITIONS: Homo sapiens; SH-SY5Y cells, overnight (16-18 h); read-out: pSer396 Tau EC50
MEASUREMENT KIND: pEC50
// returns pEC50 (minus log10 of molar concentration), number only

Example compounds with recorded pEC50:
SMILES REPRESENTATION: Cn1cc(-c2ccc3cnc(NC(=O)CN4CCOCC4)nc3c2)cn1
pEC50: 5.27
--
SMILES REPRESENTATION: C[C@H]1CCCN1CC(=O)Nc1ncc2ccc(-c3cnn(C)c3)cc2n1
pEC50: 5.77

Turning now to a further compound:
Requested read-out pEC50, target or system Tau phosphorylation at Ser396 (pSer396), entry `O=C(Nc1ncc2ccc(-c3cncs3)cc2n1)[C@H]1CC[C@H](CO)CC1`
5.06

* * *

Test system: Tau phosphorylation at Ser396 (pSer396)
PROCEDURE SUMMARY: Tau phosphorylation at Ser396 (pSer396) in SH-SY5Y cells, ELISA / western blot;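 note: decrease in pSer396 Tau measured in lysates of treated cells by colorimetric ELISA or chemiluminescent western blot, same pSer396 antibody for both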
Type: cell-based, human
APPLIED CONDITIONS: SH-SY5Y cells, overnight (16-18 h); read-out: pSer396 Tau EC50
MEASUREMENT KIND: EC50
# answer = value followed by unit

For Tau phosphorylation at Ser396 (pSer396), provide EC50 of O=C(Nc1cc2nc(-c3cnn4c3CN(CCF)CC4)ccc2cn1)C1CCC(F)(F)CC1 [Compound 317] please.
35 nM
